# Test system: CCRF-CEM
# test: NCI tumour cell line growth inhibition, 48 h
Activity calls are given as the source filed them. No stated cut-off is given here; in the data, active = GI50 up to about 1.1 µM and inactive = higher.
Possible outcomes: label 1 (active), label 0 (inactive)

{"compound": "CC(C)OC(=O)c1ccc(CCc2cc(O)c(Br)cc2O)cc1", "class": "label 0"}
{"compound": "COc1ccc(OC)c(-c2cc(=O)c3c(OC)c(OC)c(OC)c(OC)c3o2)c1", "class": "label 0"}
{"compound": "O=C1c2ccccc2-c2c1c1ccccc1c(=O)n2Cc1ccccc1", "class": "label 0"}
{"compound": "CCOC(=O)N[C@@H]1C2CC(=O)C(O2)[C@@H]1OC (stereo not given in full)", "class": "label 0"}
{"compound": "CC(C)c1ccc(/C=C2\\CSCC3=C2N=C(S)NC3c2ccc(C(C)C)cc2)cc1 (stereo not given)", "class": "label 0"}
{"compound": "COC(=O)C1=C(c2ccc3c(c2)OCO3)OC(c2ccc3c(c2)OCO3)C1 (stereo not given)", "class": "label 0"}
{"compound": "O=C(Nc1ccccc1-c1nn(CO)c(=S)n(CO)c1=O)C(F)(F)F", "class": "label 0"}
{"compound": "Cc1cc(O)c2c(c1)C(C1c3cccc(O)c3C(=O)c3c(O)cc(C)cc31)c1cccc(O)c1C2=O (stereo not given)", "class": "label 1"}
{"compound": "CC1(C)CC2=C(Sc3ccccc3N2)C(=O)C1C(=O)C(=O)Nc1cc(Cl)ccc1Cl (stereo not given)", "class": "label 0"}
{"compound": "CCc1cc(Cc2cc(CC)c(NC(=O)C(=O)Cc3ccccn3)c(CC)c2Cl)c(Cl)c(CC)c1NC(=O)C(=O)Cc1ccccn1", "class": "label 0"}
{"compound": "NC(CCC(=O)Nc1ccc(O)cc1)C(=O)O (stereo not given)", "class": "label 0"}
{"compound": "Cn1nc(-c2ccccc2)c2c(/C=C/c3ccccc3)onc2c1=O", "class": "label 0"}
{"compound": "C/C(=N\\O)c1sc(-n2nc(-c3ccccc3)cc2-c2ccccc2)nc1C", "class": "label 0"}
{"compound": "O=c1oc2ccc([N+](=O)[O-])cc2cc1Br", "class": "label 0"}
{"compound": "O=C(NC(Cc1ccc(I)cc1)C(=O)O)c1cccc(Br)c1 (stereo not given)", "class": "label 0"}
{"compound": "COc1ccc(/C=C(\\C#N)c2nc3ccccc3c(=O)[nH]2)cc1", "class": "label 0"}
{"compound": "C[C@]12CCC(=O)C=C1CC[C@@H]1[C@@H]2CC[C@]2(C)C(=O)[C@H](n3ccnc3)C[C@@H]12", "class": "label 0"}
{"compound": "COc1cc(C(c2ccc3c(c2)OCO3)C2SCCCS2)cc(OC)c1OC (stereo not given)", "class": "label 0"}
{"compound": "Cc1ccc(Nc2nc(C)c(C(/C=C/c3ccc(/C=C/C(=N/NC(=O)C[n+]4ccccc4)c4sc(Nc5ccc(C)cc5[N+](=O)[O-])nc4C)cc3)=N\\NC(=O)C[n+]3ccccc3)s2)c([N+](=O)[O-])c1", "class": "label 0"}
{"compound": "CSCCCNC(=O)c1csc(-c2csc(CCN)n2)n1", "class": "label 0"}

====

# Test system: SF-539
# test: NCI tumour cell line growth inhibition, 48 h
Activity calls are given as the source filed them. Cut-off read from the data, not from the text of the source: active = GI50 up to about 1.1 µM and inactive = higher. Where a SMILES comes first, the peptide text is derived from it.
Possible outcomes: True = active, False = inactive

{"compound": "COC(=O)C1=C(c2ccc3c(c2)OCO3)OC(c2ccc3c(c2)OCO3)C1 (stereo unspecified)", "class": "False"}
{"compound": "COc1cccc(/N=C/c2cc(OC)c(OC)c(OC)c2)c1", "class": "False"}
{"compound": "COC(=O)c1c(C)cccc1C1CN=NC12Cc1cc(C)c(C)cc1C2=O (stereo unspecified)", "class": "False"}
{"compound": "CC(=O)OC1CCC2(C)C(CCC3C4CC=C(C5(C)OCCO5)C4(C)CCC32)C1 (stereo unspecified)", "class": "False"}
{"compound": "CCCCCCCCSC(=O)NCCCC", "class": "False"}
{"compound": "COc1ccc(/C=c2\\sc3n(c2=O)C(N)=C(C#N)C(c2ccc(OC)cc2)C=3c2nc3ccccc3[nH]2)cc1 (stereo unspecified)", "class": "False"}
{"compound": "COc1c(OC(C)=O)cc2c(OC(C)=O)c1CC(C)CC(OC)C(O)C(C)/C=C(\\C)C(OC(N)=O)C(OC)/C=C\\C=C(/C)C(=O)N2 (stereo unspecified)", "class": "False"}
{"compound": "COC(=O)C(Cc1nc2ccccc2nc1O)C(=O)C(=O)Nc1ccc(OC)cc1[N+](=O)[O-] (stereo unspecified)", "class": "False"}
{"compound": "O=C1NC(=O)C23C(=O)NC(=O)C12C1C=CC3CC1 (stereo unspecified)", "class": "False"}
{"compound": "Cc1cc2nc3[nH]c4c(Cl)cc(Cl)cc4c3nc2cc1C", "class": "False"}
{"compound": "O=c1[nH]nc(Cc2ccccc2)n1/N=C/c1c[nH]c2ccccc12", "class": "False"}
{"compound": "C[C@@H]1CC[C@@H]2[C@@H](C1)O[C@@H]([C@H](C)OCc1ccccc1)SC2(C)C", "class": "False"}
{"compound": "COc1ccc(NC(=O)CC(=O)NN2C(=O)/C(=C/c3ccc(N(CCC#N)CCC#N)cc3C)N=C2/C=C\\c2ccccc2)cc1", "class": "False"}
{"compound": "S=C(N/N=C(/c1ccccc1)c1ccccn1)Nc1ccc(Cl)cc1", "class": "False"}
{"compound": "O=C(O)/C(Cl)=C(\\Cl)C(=O)Nc1ccccc1", "class": "False"}
{"compound": "O=C1c2ccccc2NC1(c1ccccc1)c1c(-c2ccccc2)[nH]c2ccccc12 (stereo unspecified)", "class": "False"}
{"compound": "Cn1c(=O)nc2n(-c3cc(C(F)(F)F)cc(C(F)(F)F)c3)c3ccccc3nc-2c1=O", "class": "False"}
{"compound": "Nc1ccc(C(=O)O)cc1", "class": "False"}
{"compound": "Cc1ccc2c(c1C)CC1(Cc3ccc(C)c(C)c3C1=O)C2=O (stereo unspecified)", "class": "False"}
{"compound": "CC(=O)NC(CS)C(=O)NC(CO)C(=O)NC(CO)C(=O)NC(Cc1c[nH]c2ccccc12)C(=O)N1CCCC1C(=O)NC(CO)C(=O)NC(Cc1c[nH]c2ccccc12)C(=O)NC(Cc1c[nH]cn1)C(=O)NC(CO)C(=O)NC(Cc1c[nH]c2ccccc12)C(=O)NCC(=O)NCC(=O)NC(CC(=O)O)C(=O)NC(CCC(N)=O)C(=O)NC(CCCCN)C(=O)NC(Cc1ccccc1)C(=O)NC(CCCNC(=N)N)C(=O)NC(CCCCN)C(N)=O (stereo unspecified) (Ac-CSSWPSWHSWGGDQKFRK-NH2; configuration not given here)", "class": "False"}
{"compound": "O=C([C@H](O)[C@@H](O)c1cccc(Cl)c1)C12CC3CC(CC(C3)C1)C2", "class": "False"}
{"compound": "O=S1(=O)c2ccccc2C(Nc2ccccc2)N1c1ccccc1 (stereo unspecified)", "class": "False"}
{"compound": "C/C(=N\\O)c1sc(-n2nc(-c3ccccc3)cc2-c2ccccc2)nc1C", "class": "False"}
{"compound": "C/C=C/C/C=C/CCC(=O)C1OC1C(N)=O (stereo unspecified)", "class": "False"}
{"compound": "O=C(Nc1ccccc1)OCCN=c1c2ccccc2ccc2ccccc12", "class": "False"}
{"compound": "CCCCOCCOC1=C(Cl)C(=O)c2c(O)ccc(O)c2C1=O", "class": "True"}
{"compound": "COc1cc(C)c(C)c(OC(=O)c2c(C)c(C)c(OC)c(C)c2OC)c1C", "class": "False"}
{"compound": "CC(=O)Oc1cc(OC(C)=O)c2c(=O)c3ccccc3[nH]c2c1", "class": "False"}
{"compound": "COc1cc2c(cc1OCCCC(=O)Nc1cc(C(=O)Nc3cc(C(=O)Nc4cc(C(=O)NCCCN(C)C)n(C)n4)n(C)n3)n(C)n1)N=CC1CCCN1C2=O (stereo unspecified)", "class": "False"}
{"compound": "NNC(=O)N/N=C1\\CN(c2ccc(Cl)cc2Cl)C(=O)C(=O)C1c1nc2ccccc2o1 (stereo unspecified)", "class": "False"}
{"compound": "O=CN1CCN(C(=O)c2cc(Cl)cc(Cl)c2)C1=S", "class": "False"}
{"compound": "Cc1cccc(C)c1N1C(=O)C(=O)C(c2nc3ccccc3s2)/C(=N/c2cccc3c(=O)[nH][nH]c(=O)c23)C1=O (stereo unspecified)", "class": "False"}
{"compound": "COc1ccc2c3c(c(C(=O)O)oc13)C(CCC(=O)O)CC2 (stereo unspecified)", "class": "False"}
{"compound": "CC(=O)O[C@H]1CC(C)(C)C(=C=C/C(C)=C/C=C/C=C/C=C(C)/C=C2C=C(/C=C/[C@@]34O[C@]3(C)C[C@@H](O)CC4(C)C)C(=O)O/2)[C@](C)(O)C1", "class": "False"}
{"compound": "CCOC(=O)C(=O)Nc1cc(Cl)c(Cl)cc1Cl", "class": "False"}
{"compound": "Cc1c(Br)c(Br)c(C)[s+]1[O-]", "class": "False"}
